FYI, the data here is from paper PMC10999543.

In this section, each of the molecules is paired with its reported cell count rep 2.
- Test system: HeLa cells
- assay info: Compound screen by flow cytometry: HeLa cell count as surrogate readout of cell viability (z-scoreHeLa); further: test concentration or dose not given here
- Assay type: cell-based, human
- condition label: PKIS compound screen raw data, HeLa cell count, replicate 2
Give the figure only, with no unit attached.

Worked examples follow.
COc1ccc(Nc2nccc(-c3ccc(NC(=O)c4cc5cc(F)ccc5[nH]4)cc3)n2)cc1 [GSK1229496A] = 3679
O=C1Nc2ccc(C(=O)c3ccco3)cc2C1=Cc1cc(Cl)c(O)c(Cl)c1 [GW406108X] = 39603
Cc1cc(-c2ccc3c(c2)CC[C@@H](N[C@@H](C)c2ccccc2)C3)cnc1N [GW412617A] = 41709
O=C(Nc1n[nH]c2cc(-c3cccc(F)c3F)ccc12)C1CC1 [SB-733894] = 4442

Kindly consider the entry below.
Input line: Would you kindly share the measured cell count rep 2 for CS(=O)(=O)Nc1ccc(-c2cc(-c3ccccc3)cc(C(N)=O)c2N)cc1 [GSK586581A] ?
Output line: 41456

* * *

- Test system: intracellular MRSA; further: test concentration or dose not given here
- Type: cell-based, Staphylococcus aureus
- condition label: compound screen, MRSA-infected HeLa cells, replicate 2
assay endpoint: z-scoreMRSA+ rep 2
Please give the numeric answer without any surrounding text.

O=C(Nc1n[nH]c2cc(-c3cccs3)ccc12)C1CC1 = 0.24

Input line: # returns recorded z-scoreMRSA+ rep 2 (system: intracellular MRSA) for Clc1ccc(CNc2nccc(-c3cnn4ncccc34)n2)cc1 [GW781673X]; further: test concentration or dose not given here
Output line: 0.37

Input line: Look up z-scoreMRSA+ rep 2 with intracellular MRSA for this molecule: O=S(=O)(CCOCc1ccc(-c2ccc3ncnc(Nc4ccc(OCc5cccc(F)c5)c(Cl)c4)c3c2)o1)c1ccccc1 [GW615311X]
Output line: -0.27

Input line: Hi! What's the reported z-scoreMRSA+ rep 2 for `Nc1nonc1-c1nc2cnccc2n1C1CCCCC1` on intracellular MRSA?
Output line: 0.17

Input line: z-scoreMRSA+ rep 2 of Cc1ccc(C)c(NC(=O)NCCNc2ccnc(Nc3ccc(F)cc3)n2)c1 [GSK1379878A] on intracellular MRSA?
Output line: 1.12

Input line: Find z-scoreMRSA+ rep 2 (intracellular MRSA) for the entry Cc1cccc(-c2nc(Nc3ccncc3)c3ccccc3n2)n1 [GW855857X]
Output line: 0.46

* * *

- Tested on: HeLa cells
- assay info: Compound screen by flow cytometry: HeLa cell count as surrogate readout of cell viability (z-scoreHeLa); further: test concentration or dose not given here
- Type: cell-based, human
- condition label: PKIS compound screen raw data, HeLa cell count, replicate 2
assay endpoint: cell count rep 2
Lab note: jot the number down without any unit.

Input line: GET /values?readout=cell count rep 2&item= Nc1ncc(-c2ccncc2)c2scc(-c3ccc4c(c3)CCN4C(=O)Cc3ccccc3)c12 [GSK2592465A]
Output line: 4633

Input line: Entry CS(=O)(=O)Cc1ccc(Nc2nccc(-c3c(-c4cccc(NC(=O)C5CCCCC5)c4)nn4ncccc34)n2)cc1 [GSK350559A] has what cell count rep 2?
Output line: 4109

Input line: Request the reported cell count rep 2 associated with CCS(=O)(=O)c1ccc(OC)c(Nc2ncc(-c3cccc(-c4ccccc4F)c3)o2)c1 [GW678313X]
Output line: 31542

Input line: What value of cell count rep 2 has been recorded for this entry: CN1CCC(n2cnc(-c3ccc(F)cc3)c2-c2ccnc(Nc3ccccc3)n2)CC1 [SB-236687]
Output line: 24622
